Test system: CL1 human prostate carcinoma cell line
Test: XTT proliferation (cytotoxicity) assay, CL1
Assay type: cell-based
Details: CL1, pH 7.4, 24 h
Square brackets hold non-standard residues; d marks the D form. Peptide text beside a SMILES is read from it.
Record form. Attribute: Lethal Concentration (LC50). Fill in for each entry.
Response body: numeric value in µg/mL, unit text excluded.

Q: Which measured Lethal Concentration (LC50) belongs to CC(C)C[C@H](NC(=O)[C@H](CC(C)C)NC(=O)[C@@H](CCCCN)NC(=O)[C@H](CC(C)C)NC(=O)[C@H](CC(C)C)NC(=O)[C@H](Cc1c[nH]cn1)NC(=O)[C@@H](CCCCN)NC(=O)[C@@H](CC(C)C)NC(=O)[C@H](CC(C)C)NC(=O)[C@@H](CCCCN)NC(=O)[C@H](Cc1c[nH]cn1)NC(=O)[C@H](CC(C)C)NC(=O)[C@@H](CC(C)C)NC(=O)[C@H](Cc1c[nH]cn1)NC(=O)[C@@H](N)CC(C)C)C(N)=O [Peptide 14] (H-LH[dL]LH[dK]L[dL][dK]HLL[dK]LL-NH2) , tested on CL1 human prostate carcinoma cell line?
Ans: 12.5

Q: Again, but for CC(C)C[C@H](NC(=O)[C@H](CC(C)C)NC(=O)[C@@H](CCCCN)NC(=O)[C@H](CC(C)C)NC(=O)[C@H](CC(C)C)NC(=O)[C@H](CCCCN)NC(=O)[C@@H](CCCCN)NC(=O)[C@@H](CC(C)C)NC(=O)[C@H](CC(C)C)NC(=O)[C@@H](CCCCN)NC(=O)[C@H](CCCCN)NC(=O)[C@H](CC(C)C)NC(=O)[C@@H](CC(C)C)NC(=O)[C@H](CCCCN)NC(=O)[C@@H](N)CC(C)C)C(N)=O [Peptide 1, reference compound] (H-LK[dL]LK[dK]L[dL][dK]KLL[dK]LL-NH2)
Ans: 6.25
